The reader will find reported recombinant UMI read abundance (log10) values listed item by item below.
procedure-details: recombinant UMI read abundance after kanamycin selection (control-corrected) (log10(CPM+1)); higher = more efficient recombination; extreme values may be limits of the assay; sequences stand for … in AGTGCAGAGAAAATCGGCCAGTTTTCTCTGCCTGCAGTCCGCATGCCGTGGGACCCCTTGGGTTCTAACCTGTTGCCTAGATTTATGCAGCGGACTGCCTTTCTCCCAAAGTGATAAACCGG…AGGTTGGTTTCACT; site = the 11-nt donor;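 also: IS621 bridge recombinase in Escherichia coli cells against a fixed T5 target plasmid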

{"sequence-text": "ACTAGTGCATGGACCGGTTTTCCCGGTAATCCGTATTTGGT (site ACCAGTGCTAC)", "recombinant UMI read abundance (log10)": 1.02}
{"sequence-text": "CTCTACACATGGACCGGTTTTCCCGGTAATCCGTATTTGCT (site CTCTACTCTAG)", "recombinant UMI read abundance (log10)": 0.78}
{"sequence-text": "GGATCGACATGGACCGGTTTTCCCGGTAATCCGTATTTGCC (site GGATAGACTGG)", "recombinant UMI read abundance (log10)": 1.48}
{"sequence-text": "CAGCTGGCATGGACCGGTTTTCCCGGTAATCCGTATTTGAT (site CAGCTGGCTAT)", "recombinant UMI read abundance (log10)": 1.63}
{"sequence-text": "CGTGGATCATGGACCGGTTTTCCCGGTAATCCGTATTTGTT (site CGTGGAGCTAA)", "recombinant UMI read abundance (log10)": 0}
{"sequence-text": "CTCCGAACATGGACCGGTTTTCCCGGTAATCCGTATTTGCG (site CTCCGAACTCG)", "recombinant UMI read abundance (log10)": 0.829}
{"sequence-text": "GGGGCCCCATGGACCGGTTTTCCCGGTAATCCGTATTTGCA (site GGGGCACCTTG)", "recombinant UMI read abundance (log10)": 0.00505}
{"sequence-text": "ATCTAGACATGGACCGGTTTTCCCGGTAATCCGTATTTGAC (site ATCTAAACTGT)", "recombinant UMI read abundance (log10)": 2.21}
{"sequence-text": "ACCCACACATGGACCGGTTTTCCCGGTAATCCGTATTTGTA (site TCCCACACTTA)", "recombinant UMI read abundance (log10)": 0.408}
{"sequence-text": "ATCTATCCATGGACCGGTTTTCCCGGTAATCCGTATTTGAC (site ATCTATACTGT)", "recombinant UMI read abundance (log10)": 0}
{"sequence-text": "CGATCATCATGGACCGGTTTTCCCGGTAATCCGTATTTGCA (site CGATCATCTTG)", "recombinant UMI read abundance (log10)": 2.31}
{"sequence-text": "CTCCCTACATGGACCGGTTTTCCCGGTAATCCGTATTTGAG (site CTCCCAACTCT)", "recombinant UMI read abundance (log10)": 0.00701}
{"sequence-text": "AAGAACACATGGACCGGTTTTCCCGGTAATCCGTATTTGCA (site AGGAAGACTTG)", "recombinant UMI read abundance (log10)": 0}
{"sequence-text": "GATCGGACATGGACCGGTTTTCCCGGTAATCCGTATTTGAC (site GATAGGACTGT)", "recombinant UMI read abundance (log10)": 0}
{"sequence-text": "AAAAGTCCATGGACCGGTTTTCCCGGTAATCCGTATTTGTA (site AAAAGTCCTTA)", "recombinant UMI read abundance (log10)": 0.66}
{"sequence-text": "ATTGAGACATGGACCGGTTTTCCCGGTAATCCGTATTTGGG (site ATTGAGACTTC)", "recombinant UMI read abundance (log10)": 0.0235}
{"sequence-text": "ACCTAGACATGGACCGGTTTTCCCGGTAATCCGTATTTGAG (site ACCTAGACTCA)", "recombinant UMI read abundance (log10)": 0.226}
{"sequence-text": "TTTGAGACATGGACCGGTTTTCCCGGTAATCCGTATTTGGT (site TTTGAGACTAC)", "recombinant UMI read abundance (log10)": 0.511}
{"sequence-text": "CACTTGGCATGGACCGGTTTTCCCGGTAATCCGTATTTGGA (site CACTAGGCTTC)", "recombinant UMI read abundance (log10)": 0.104}
{"sequence-text": "CGAGGACCATGGACCGGTTTTCCCGGTAATCCGTATTTGGG (site CGAGAACCTCC)", "recombinant UMI read abundance (log10)": 0.0154}
{"sequence-text": "ATTGAGACATGGACCGGTTTTCCCGGTAATCCGTATTTGGG (site ATTGAGACTGC)", "recombinant UMI read abundance (log10)": 0}
{"sequence-text": "GGTACGTCATGGACCGGTTTTCCCGGTAATCCGTATTTGTG (site GGTACGTCTTA)", "recombinant UMI read abundance (log10)": 0}
{"sequence-text": "GCCACTGCATGGACCGGTTTTCCCGGTAATCCGTATTTGCC (site GCGACTGCTGG)", "recombinant UMI read abundance (log10)": 0}
{"sequence-text": "CCTCGGACATGGACCGGTTTTCCCGGTAATCCGTATTTGGT (site CCTCGGACTAC)", "recombinant UMI read abundance (log10)": 0.013}
{"sequence-text": "CGCCCATCATGGACCGGTTTTCCCGGTAATCCGTATTTGCT (site CGCCCATCTAG)", "recombinant UMI read abundance (log10)": 2.54}
{"sequence-text": "TACAGACCATGGACCGGTTTTCCCGGTAATCCGTATTTGTC (site TACAGACCTGA)", "recombinant UMI read abundance (log10)": 0}
{"sequence-text": "CCGTCGCCATGGACCGGTTTTCCCGGTAATCCGTATTTGAT (site CCGTCGCCTAT)", "recombinant UMI read abundance (log10)": 0.00407}
{"sequence-text": "ATATAGGCATGGACCGGTTTTCCCGGTAATCCGTATTTGGC (site ATGTAGGCTGC)", "recombinant UMI read abundance (log10)": 1.08}
{"sequence-text": "TGTTAACCATGGACCGGTTTTCCCGGTAATCCGTATTTGCT (site TGTTAACCTAG)", "recombinant UMI read abundance (log10)": 0}
{"sequence-text": "CCGTTCTCATGGACCGGTTTTCCCGGTAATCCGTATTTGGG (site CCGTTCTCTCC)", "recombinant UMI read abundance (log10)": 0}
{"sequence-text": "AGGAAGACATGGACCGGTTTTCCCGGTAATCCGTATTTGCA (site AGAAAAACTTG)", "recombinant UMI read abundance (log10)": 0}
{"sequence-text": "CCCGGTCCATGGACCGGTTTTCCCGGTAATCCGTATTTGCA (site GCCGGTCCTTG)", "recombinant UMI read abundance (log10)": 0}
{"sequence-text": "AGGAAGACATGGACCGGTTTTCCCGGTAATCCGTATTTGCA (site CGGAAGACTGG)", "recombinant UMI read abundance (log10)": 0}
{"sequence-text": "GTAATGGCATGGACCGGTTTTCCCGGTAATCCGTATTTGAA (site GTAATGGCTTT)", "recombinant UMI read abundance (log10)": 2.26}
{"sequence-text": "CGTTCATCATGGACCGGTTTTCCCGGTAATCCGTATTTGCT (site CGTTCATCTAG)", "recombinant UMI read abundance (log10)": 1.35}
{"sequence-text": "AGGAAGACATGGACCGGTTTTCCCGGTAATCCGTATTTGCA (site ACGAAAACTTG)", "recombinant UMI read abundance (log10)": 0}
